Please respond with reported Ki for every item in the list.
Respond numerically; units are µM and should not be typed.

Form field Ki for item O=C(O)C(=O)O.O=C1CCON1CC#CCN1CCCCC1 on Muscarinic acetylcholine receptor M2 (Homo sapiens): 0.04

Form field Ki for item C(#CCN1CCCCC1)COC1=NOCC1.O=C(O)C(=O)O on Muscarinic acetylcholine receptor M2 (Homo sapiens): 0.876

Form field Ki for item Cc1cc(OCC#CCN(C)C)no1.O=C(O)/C=C/C(=O)O on Muscarinic acetylcholine receptor M2 (Homo sapiens): 3.8

Form field Ki for item C[N+]1(CC#CCOC2=NOCC2)CCCCC1.[I-] on Muscarinic acetylcholine receptor M2 (Homo sapiens): 0.219

Form field Ki for item O=C1CCON1CC#CCN1CCCC1 on Muscarinic acetylcholine receptor M2 (Homo sapiens): 0.07

Form field Ki for item C[N+]1(CC#CCOC2=NOCC2)CCc2ccccc21 (stereo not given) on Muscarinic acetylcholine receptor M2 (Homo sapiens): 4.1

Form field Ki for item Cc1cc(OCC#CC[N+](C)(C)C)no1.[I-] on Muscarinic acetylcholine receptor M2 (Homo sapiens): 0.05

Form field Ki for item Cc1cc(OCC#CC[N+]2(C)CCCC2)no1.[I-] on Muscarinic acetylcholine receptor M2 (Homo sapiens): 2.04

====

property_label: Ki (µM)
Respond numerically; units are µM and should not be typed.

Form field Ki for item C(#CCN1CCCC1)COc1cc(-c2ccccc2)on1 on Muscarinic acetylcholine receptor M5 (Homo sapiens, UniProt P08912): 6.88

Form field Ki for item O=C1CCON1CC#CCN1CCCC1 on Muscarinic acetylcholine receptor M5 (Homo sapiens, UniProt P08912): 0.51

Form field Ki for item C[N+]1(CC#CCOc2cc(-c3ccccc3)on2)CCCC1.[I-] on Muscarinic acetylcholine receptor M5 (Homo sapiens, UniProt P08912): 1.84

Form field Ki for item Cc1cc(OCC#CC[N+](C)(C)C)no1.[I-] on Muscarinic acetylcholine receptor M5 (Homo sapiens, UniProt P08912): 6.31

====

Please respond with reported pKi for every item in the list.
Target: Muscarinic acetylcholine receptor M5 (Homo sapiens, UniProt P08912)
Sequence (P08912 whole entry): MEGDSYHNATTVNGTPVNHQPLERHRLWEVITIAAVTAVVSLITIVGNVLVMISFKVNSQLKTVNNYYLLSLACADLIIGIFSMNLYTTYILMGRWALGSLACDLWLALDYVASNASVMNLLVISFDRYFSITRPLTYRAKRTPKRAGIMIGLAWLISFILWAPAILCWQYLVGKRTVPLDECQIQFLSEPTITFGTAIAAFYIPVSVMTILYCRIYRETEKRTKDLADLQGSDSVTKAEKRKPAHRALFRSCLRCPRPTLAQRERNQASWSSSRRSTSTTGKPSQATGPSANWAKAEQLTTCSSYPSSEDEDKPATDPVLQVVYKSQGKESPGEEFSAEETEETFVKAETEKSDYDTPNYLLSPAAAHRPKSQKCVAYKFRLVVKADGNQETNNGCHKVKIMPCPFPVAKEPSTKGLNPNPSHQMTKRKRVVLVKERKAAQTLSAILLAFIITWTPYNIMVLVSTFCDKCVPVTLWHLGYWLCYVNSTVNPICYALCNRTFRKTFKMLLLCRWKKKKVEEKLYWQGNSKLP
Just so you know, pKi here is -log10 of the concentration in molar units; reply with that number alone.

For record C(#CCN1CCCCC1)COC1=NOCC1.O=C(O)C(=O)O the listed pKi is 5.29

For record O=C(O)C(=O)O.O=C1CCON1CC#CCN1CCCCC1 the listed pKi is 6.26

For record C[N+]1(CC#CCOC2=NOCC2)CCCCC1.[I-] the listed pKi is 5.39

====

Please respond with reported Ki for every item in the list.
Target: Muscarinic acetylcholine receptor M5 (Homo sapiens, UniProt P08912)
Sequence (P08912 whole entry): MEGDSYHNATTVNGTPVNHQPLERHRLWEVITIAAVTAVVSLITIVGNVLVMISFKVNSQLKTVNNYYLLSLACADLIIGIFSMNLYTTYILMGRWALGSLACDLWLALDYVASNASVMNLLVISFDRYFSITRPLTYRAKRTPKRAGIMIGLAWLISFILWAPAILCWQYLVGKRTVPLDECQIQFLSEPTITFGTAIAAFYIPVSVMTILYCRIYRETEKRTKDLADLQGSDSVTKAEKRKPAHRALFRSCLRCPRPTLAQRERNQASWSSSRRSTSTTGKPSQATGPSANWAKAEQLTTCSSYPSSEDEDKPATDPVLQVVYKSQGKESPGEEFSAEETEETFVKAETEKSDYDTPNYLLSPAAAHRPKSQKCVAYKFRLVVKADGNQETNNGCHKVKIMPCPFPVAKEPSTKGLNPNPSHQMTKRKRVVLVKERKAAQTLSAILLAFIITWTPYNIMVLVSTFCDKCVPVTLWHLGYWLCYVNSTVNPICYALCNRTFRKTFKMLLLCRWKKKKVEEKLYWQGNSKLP

For record C[N+]12CCC(CC1)/C(=N/OCC#CCOc1ccon1)C2.[I-] the listed Ki is > 10 µM

For record O=C1CCON1CC#CCN1CCc2ccccc2C1 the listed Ki is > 10 µM

For record Cc1cc(OCC#CCN(C)C)no1.O=C(O)/C=C/C(=O)O the listed Ki is > 10 µM

For record C[N+]1(CC#CCOC2=NOCC2)CCc2ccccc21 (stereo unspecified) the listed Ki is > 10 µM

For record Cc1cc(OCC#CC[N+]2(C)CCCC2)no1.[I-] the listed Ki is 7.51 µM

For record C[N+]1(CC#CCN2OCCC2=O)CCc2ccccc21 (stereo unspecified) the listed Ki is > 10 µM

====

property_label: Ki (µM)
Respond numerically; units are µM and should not be typed.

Form field Ki for item Cc1cc(OCC#CC[N+](C)(C)C)no1.[I-] on Muscarinic acetylcholine receptor M3 (Homo sapiens): 3.99

Form field Ki for item C(#CCN1CCCCC1)COC1=NOCC1.O=C(O)C(=O)O on Muscarinic acetylcholine receptor M3 (Homo sapiens): 3.92

Form field Ki for item O=C(O)C(=O)O.O=C1CCON1CC#CCN1CCCCC1 on Muscarinic acetylcholine receptor M3 (Homo sapiens): 0.537

Form field Ki for item C[N+]1(CC#CCOC2=NOCC2)CCc2ccccc21 (centres undefined) on Muscarinic acetylcholine receptor M3 (Homo sapiens): 5.54

Form field Ki for item C[N+]1(CC#CCOc2cc(-c3ccccc3)on2)CCCC1.[I-] on Muscarinic acetylcholine receptor M3 (Homo sapiens): 1.45

Form field Ki for item O=C1CCON1CC#CCN1CCCC1 on Muscarinic acetylcholine receptor M3 (Homo sapiens): 0.392

Form field Ki for item C[N+]1(CC#CCOC2=NOCC2)CCCCC1.[I-] on Muscarinic acetylcholine receptor M3 (Homo sapiens): 4.74

Form field Ki for item Cc1cc(OCC#CC[N+]2(C)CCCC2)no1.[I-] on Muscarinic acetylcholine receptor M3 (Homo sapiens): 7.39

====

Molecular target: Muscarinic acetylcholine receptor M4 (Homo sapiens)
Sequence (P08173 whole entry): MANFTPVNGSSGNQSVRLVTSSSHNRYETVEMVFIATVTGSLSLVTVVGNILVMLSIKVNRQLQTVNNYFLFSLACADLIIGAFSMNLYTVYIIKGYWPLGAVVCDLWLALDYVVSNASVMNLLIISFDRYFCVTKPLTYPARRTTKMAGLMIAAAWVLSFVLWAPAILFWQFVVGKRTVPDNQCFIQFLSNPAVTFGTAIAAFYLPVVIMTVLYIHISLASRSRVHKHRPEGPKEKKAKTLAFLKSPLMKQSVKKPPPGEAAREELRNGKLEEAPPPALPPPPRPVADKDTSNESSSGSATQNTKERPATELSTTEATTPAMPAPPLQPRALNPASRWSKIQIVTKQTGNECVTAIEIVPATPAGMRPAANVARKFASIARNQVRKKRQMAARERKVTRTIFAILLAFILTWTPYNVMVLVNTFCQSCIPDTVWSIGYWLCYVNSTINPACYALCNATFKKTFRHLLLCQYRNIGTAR
pKi: −log10 of the molar value.
Classification field: t = pKi at or over 6; f = pKi under 6.

Query: Hi team, for C(#CCN1CCCC1)COc1cc(-c2ccccc2)on1 , is the recorded pKi at or above 6?
Response: f

Query: Hi team, for O=C1CCON1CC#CCN1CCCC1 , is the recorded pKi at or above 6?
Response: t

Query: Hi team, for C[N+]1(CC#CCOC2=NOCC2)CCc2ccccc21 (stereo unspecified) , is the recorded pKi at or above 6?
Response: f

Query: Hi team, for C[N+]1(CC#CCOC2=NOCC2)CCCCC1.[I-] , is the recorded pKi at or above 6?
Response: f

Query: Hi team, for Cc1cc(OCC#CC[N+]2(C)CCCC2)no1.[I-] , is the recorded pKi at or above 6?
Response: f

====

Please respond with reported pKi for every item in the list.
Biological target: Muscarinic acetylcholine receptor M5 (Homo sapiens, UniProt P08912)
Sequence (P08912 whole entry): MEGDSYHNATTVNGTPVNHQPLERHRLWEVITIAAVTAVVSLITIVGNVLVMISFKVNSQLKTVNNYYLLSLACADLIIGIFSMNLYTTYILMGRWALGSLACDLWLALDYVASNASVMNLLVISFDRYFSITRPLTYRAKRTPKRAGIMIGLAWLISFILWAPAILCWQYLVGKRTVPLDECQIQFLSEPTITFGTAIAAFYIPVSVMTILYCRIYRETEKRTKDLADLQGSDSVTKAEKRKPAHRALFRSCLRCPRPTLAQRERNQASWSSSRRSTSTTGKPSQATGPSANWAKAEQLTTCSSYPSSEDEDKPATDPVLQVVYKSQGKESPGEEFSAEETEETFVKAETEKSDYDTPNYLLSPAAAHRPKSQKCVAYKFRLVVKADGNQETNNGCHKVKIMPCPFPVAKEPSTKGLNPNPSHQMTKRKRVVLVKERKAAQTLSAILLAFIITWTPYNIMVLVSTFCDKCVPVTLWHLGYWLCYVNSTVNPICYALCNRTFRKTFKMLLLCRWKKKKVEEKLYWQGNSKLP
pKi: −log10 of the molar value.

For record C[N+]1(CC#CCN2OCCC2=O)CCc2ccccc2C1 (stereo not drawn) the listed pKi is < 5.00

For record O=C1CCON1CC#CCN1C2CCCC1CC2 the listed pKi is < 5.00

For record C(#CCN1CCc2ccccc21)COC1=NOCC1 the listed pKi is < 5.00
